Reference source: patent US20260306640A1

Overview of recorded DC50 for various compounds
biological target: KAT2A (Homo sapiens); assay: KAT2A degradation, Western Blot (Jess), MOLM-13 cells; type: cell-based; parameters: degrader, Western blot; details: MOLM-13 cells, KAT2A, 24 h, Western Blot, vs DMSO; read-out: KAT2A MOLM-13 DC50

Worked cases, answers included:
COMPOUND: CN1C[C@H](Nc2cnn(C)c(=O)c2Br)C[C@H](c2ccc(C(=O)N3CCC(CN4CCC(c5ccc6c(c5)C(=O)N(C5CCC(=O)NC5=O)C6=O)CC4)CC3)cc2)C1 (stereo partly drawn)
DC50: < 1 nM

COMPOUND: CN1C[C@H](Nc2ccn(C)c(=O)c2Cl)C[C@H](c2ccc(COc3ccc4c(c3)C(=O)N(C3CCC(=O)NC3=O)C4=O)cc2)C1 (stereo partly drawn)
DC50: 1 to 30 nM

Read the next record carefully.
CN1C[C@H](Nc2cnn(C)c(=O)c2Br)C[C@H](c2ccc(CN(C)c3ccc(Oc4cccc5c4C(=O)N(C4CCC(=O)NC4=O)C5=O)cc3)cc2)C1 (stereo partly drawn) yielded DC50 of 1 to 30 nM

###

molecular target: KAT2A (Homo sapiens, UniProt Q92830); experiment: KAT2A degradation, Western Blot (Jess), NCI-H1048 cells; type: cell-based; set-up: degrader, Western blot (Jess); conditions: NCI-H1048 cells, KAT2A, 24 h, Western Blot, vs DMSO; read-out: KAT2A NCI-H1048 DC50
Sequence (Q92830 whole entry): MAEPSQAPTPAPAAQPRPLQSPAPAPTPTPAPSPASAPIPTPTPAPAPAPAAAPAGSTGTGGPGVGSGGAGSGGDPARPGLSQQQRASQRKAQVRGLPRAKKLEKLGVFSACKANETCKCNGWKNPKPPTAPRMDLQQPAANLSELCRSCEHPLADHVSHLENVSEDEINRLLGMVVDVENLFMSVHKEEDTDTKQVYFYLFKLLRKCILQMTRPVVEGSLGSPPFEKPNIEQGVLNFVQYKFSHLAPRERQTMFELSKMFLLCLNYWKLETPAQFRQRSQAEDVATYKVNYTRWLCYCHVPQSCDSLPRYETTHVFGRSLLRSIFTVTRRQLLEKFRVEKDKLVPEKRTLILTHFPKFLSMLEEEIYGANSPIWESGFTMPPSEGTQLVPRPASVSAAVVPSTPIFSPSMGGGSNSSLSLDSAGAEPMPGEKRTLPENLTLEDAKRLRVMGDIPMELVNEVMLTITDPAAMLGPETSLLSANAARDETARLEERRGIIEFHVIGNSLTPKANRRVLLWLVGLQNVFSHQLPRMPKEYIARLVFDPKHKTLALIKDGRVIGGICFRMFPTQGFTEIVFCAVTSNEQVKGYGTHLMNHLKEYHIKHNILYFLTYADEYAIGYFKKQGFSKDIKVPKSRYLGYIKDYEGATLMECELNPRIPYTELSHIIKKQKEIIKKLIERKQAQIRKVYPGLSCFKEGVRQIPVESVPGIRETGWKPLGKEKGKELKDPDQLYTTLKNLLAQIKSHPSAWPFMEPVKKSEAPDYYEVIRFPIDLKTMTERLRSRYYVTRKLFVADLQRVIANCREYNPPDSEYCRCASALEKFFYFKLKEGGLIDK
MEASURED_ATTRIBUTE: DC50

MOLECULE: CN1C[C@H](Nc2cnn(C)c(=O)c2Cl)C[C@H](c2ccc(CN3CCN(c4cncc(C5CCC(=O)NC5=O)c4)CC3)cc2)C1 (some centres unmarked)
SYSTEM_NAME: KAT2A (Homo sapiens, UniProt Q92830)
DC50: > 30 nM
//
MOLECULE: Cc1ncsc1-c1ccc(CNC(=O)[C@@H]2C[C@@H](O)CN2C(=O)[C@@H](NC(=O)CCCCCCCCNC(=O)c2ccc([C@H]3C[C@@H](Nc4cnn(C)c(=O)c4Br)CN(C)C3)cc2)C(C)(C)C)cc1
SYSTEM_NAME: KAT2A (Homo sapiens, UniProt Q92830)
DC50: > 30 nM
//
MOLECULE: Cc1cc(N2CCC3(CCN(C(=O)c4ccc([C@H]5C[C@@H](Nc6cnn(C)c(=O)c6Br)CN(C)C5)cc4)CC3)CC2)ccc1C1CCC(=O)NC1=O (some centres unmarked) [Compound 265]
SYSTEM_NAME: KAT2A (Homo sapiens, UniProt Q92830)
DC50: < 1 nM
//
MOLECULE: C[C@@H]1CN(c2cccc(C3CCC(=O)NC3=O)c2)C[C@H](C)N1Cc1ccc([C@H]2C[C@@H](Nc3cnn(C)c(=O)c3Br)CN(C)C2)cc1 (some centres unmarked)
SYSTEM_NAME: KAT2A (Homo sapiens, UniProt Q92830)
DC50: 1 to 30 nM

Read the next record carefully.
CN1C[C@H](Nc2ccn(C)c(=O)c2Br)C[C@H](c2ccc(C(=O)N3CCC4(CCC(c5ccc(C6CCC(=O)NC6=O)cc5)CC4)CC3)cc2)C1 (some centres unmarked) yielded DC50 of < 1 nM

###

Target: KAT2B (Homo sapiens)
Sequence (Q92831 whole entry): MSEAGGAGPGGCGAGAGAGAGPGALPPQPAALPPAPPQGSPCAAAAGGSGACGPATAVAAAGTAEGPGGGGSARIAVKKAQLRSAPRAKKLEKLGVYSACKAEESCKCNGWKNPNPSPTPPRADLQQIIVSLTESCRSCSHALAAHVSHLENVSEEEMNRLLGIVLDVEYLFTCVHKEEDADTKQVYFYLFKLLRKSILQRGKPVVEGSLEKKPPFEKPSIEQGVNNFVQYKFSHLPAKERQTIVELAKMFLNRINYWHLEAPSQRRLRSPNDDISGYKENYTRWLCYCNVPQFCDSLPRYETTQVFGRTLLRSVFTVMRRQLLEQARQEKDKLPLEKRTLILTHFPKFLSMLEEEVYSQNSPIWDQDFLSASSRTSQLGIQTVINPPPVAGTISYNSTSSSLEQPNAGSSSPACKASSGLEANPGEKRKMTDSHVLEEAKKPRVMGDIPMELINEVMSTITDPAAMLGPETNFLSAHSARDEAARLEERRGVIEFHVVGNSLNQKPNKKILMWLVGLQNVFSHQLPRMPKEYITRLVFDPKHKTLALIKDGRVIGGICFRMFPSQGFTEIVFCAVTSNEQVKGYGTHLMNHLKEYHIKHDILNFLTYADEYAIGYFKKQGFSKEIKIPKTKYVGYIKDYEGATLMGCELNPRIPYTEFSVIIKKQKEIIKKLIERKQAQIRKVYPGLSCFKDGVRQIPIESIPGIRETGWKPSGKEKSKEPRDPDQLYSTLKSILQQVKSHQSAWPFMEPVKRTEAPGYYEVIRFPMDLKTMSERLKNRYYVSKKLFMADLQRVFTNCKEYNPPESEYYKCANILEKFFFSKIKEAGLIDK
Assay: KAT2B degradation, Western Blot (Jess), NCI-H1048 cells
Format: cell-based
Parameters: degrader, Western blot (Jess)
Conditions: NCI-H1048 cells, KAT2B, 24 h, Western Blot, vs DMSO; read-out: KAT2B NCI-H1048 DC50
From the text: MOLM-13 cells or NCI-H1048 cells were used for Western Blot analysis of KAT2A degradation. KAT2B degradation can be measured in a similar manner with NCI-H1048 cells. […] MOLM-13 cells or NCI-H1048 cells were washed with PBS, then lysed with RIPA buffer containing 1×protease and phosphatase inhibitors (SantaCruz Biotechnologies Cat #sc-24948A). […] Protein was quantified via Bradford assay. […] Signal was detected by chemiluminescence. […]
Overview of recorded DC50 for various molecules

Worked cases, answers included:
MOLECULE: CN1C[C@H](Nc2cnn(C)c(=O)c2Cl)C[C@H](c2ccc(C(=O)N3CCC4(CC3)CCN(c3ccc(C5CCC(=O)NC5=O)c(F)c3)CC4)cc2)C1 (stereo partly drawn) [Compound 317]
VALUE_OBSERVED: < 1 nM
--
MOLECULE: CN1C[C@H](Nc2cnn(C)c(=O)c2Cl)C[C@H](c2ccc(CN3CCN(c4ccc(F)c(C5CCC(=O)NC5=O)c4)CC3)cc2)C1 (stereo partly drawn) [Compound 341]
VALUE_OBSERVED: 1 to 30 nM
--
MOLECULE: CN1C[C@H](Nc2cnn(C)c(=O)c2Br)C[C@H](c2ccc(CN3CCN(c4cccc(OC5CCC(=O)NC5=O)c4)CC3)cc2)C1 (stereo partly drawn) [Compound 435]
VALUE_OBSERVED: > 30 nM
--
MOLECULE: CN1C[C@H](Nc2cnn(C)c(=O)c2Cl)C[C@H](c2ccc(CN3CCN(c4cc5c(cc4F)C(=O)N(C4CCC(=O)NC4=O)C5=O)CC3)cc2)C1 (stereo partly drawn) [Compound 305]
VALUE_OBSERVED: > 30 nM
--
MOLECULE: CN1C[C@H](Nc2cnn(C)c(=O)c2Br)C[C@H](c2ccc(C(=O)N3CCC4(CC3)CCN(c3ccc(OC5CCC(=O)NC5=O)cn3)CC4)cc2)C1 (stereo partly drawn) [Compound 366]
VALUE_OBSERVED: 1 to 30 nM

Read the next record carefully.
Field DC50 (system: KAT2B (Homo sapiens)) for entry COc1cc(C2CCC(=O)NC2=O)ccc1N1CCC2(CCN(C(=O)c3ccc([C@H]4C[C@@H](Nc5cnn(C)c(=O)c5Br)CN(C)C4)cc3)CC2)CC1 (stereo partly drawn) [Compound 238] = 1 to 30 nM

###

Overview of recorded DC50 for various molecules
molecular target: KAT2A (Homo sapiens, UniProt Q92830); assay: KAT2A degradation, Western Blot (Jess), NCI-H1048 cells; assay type: cell-based; set-up: degrader, Western blot (Jess); conditions: NCI-H1048 cells, KAT2A, 24 h, Western Blot, vs DMSO; read-out: KAT2A NCI-H1048 DC50

MOLECULE: CN1C[C@H](Nc2cnn(C)c(=O)c2Br)C[C@H](c2ccc(C(=O)N3CC(C#Cc4ccc(C5CCC(=O)NC5=O)cc4)C3)cc2)C1 (stereo partly drawn) [Compound 335]
VALUE_OBSERVED: < 1 nM
//
MOLECULE: Cc1cc(N2CC3(CCN(C(=O)c4ccc([C@H]5C[C@@H](Nc6cnn(C)c(=O)c6Cl)CN(C)C5)cc4)CC3)C2)ccc1C1CCC(=O)NC1=O (stereo partly drawn)
VALUE_OBSERVED: 1 to 30 nM
//
MOLECULE: Cc1c(N[C@@H]2C[C@H](c3ccc(COc4ccc5c(c4)C(=O)N(C4CCC(=O)NC4=O)C5=O)cc3)CN(C)C2)cnn(C)c1=O (stereo partly drawn)
VALUE_OBSERVED: < 1 nM
//
MOLECULE: CN1C[C@H](Nc2cnn(C)c(=O)c2Br)C[C@H](c2ccc(C(=O)N3CCC4(CC3)CCN(c3ccc(C5CCC(=O)NC5=O)cc3OC(F)(F)F)CC4)cc2)C1 (stereo partly drawn)
VALUE_OBSERVED: < 1 nM
//
MOLECULE: CN1C[C@H](Nc2cnn(C)c(=O)c2Br)C[C@H](c2ccc(C(=O)N3CCC4(CC3)CCN(c3ccc(NC5CCC(=O)NC5=O)c(F)c3)CC4)cc2)C1 (stereo partly drawn)
VALUE_OBSERVED: < 1 nM

Read the next record carefully.
CN1C[C@H](Nc2cnn(C)c(=O)c2Cl)C[C@H](c2ccc(C(=O)N3CCC4(CC3)CCN(c3ccc5c(c3)C(=O)N(C3CCC(=O)NC3=O)C5=O)CC4)cc2)C1 (stereo partly drawn) yielded DC50 of < 1 nM

###

test system: MOLM-13 cells; assay: Cell growth inhibition, AML cell line MOLM-13 (CyQuant, day 7); type: cell-based; details: Homo sapiens, 168 h; MOLM-13, day 7, CyQuant; read-out: MOLM13 GI50
MEASURED_ATTRIBUTE: GI50 (nM)

P: CN1C[C@H](Nc2cnn(C)c(=O)c2Br)C[C@H](c2ccc(C(=O)N3CCC4(CC3)CCN(c3ccc(OC5CCC(=O)NC5=O)cc3)CC4)cc2)C1 (stereo partly drawn)
Q: CN1C[C@H](Nc2cnn(C)c(=O)c2Cl)C[C@H](c2ccc(C(=O)N3CCC4(CC3)CCN(c3ccc(C5CCC(=O)NC5=O)cc3)CC4)cc2)C1 (stereo partly drawn)
Q: Between P and Q , which one shows the larger GI50 value? Respond with the label that goes with your answer.
Result: P
(P: 5.7 nM, Q: 1 nM)

A: Cc1cc(N2CCC3(CCN(C(=O)c4ccc([C@H]5C[C@@H](Nc6cnn(C)c(=O)c6Br)CN(C)C5)cc4)CC3)CC2)ccc1C1CCC(=O)NC1=O (stereo partly drawn)
B: CN1C[C@H](Nc2cnn(C)c(=O)c2Cl)C[C@H](c2ccc(C(=O)N3CCC4(CCC(c5ccc(C6CCC(=O)NC6=O)cc5F)CC4)CC3)cc2)C1 (stereo partly drawn)
Q: Between A and B , which one shows the larger GI50 value? Respond with the label that goes with your answer.
Result: B
